Data credit: the NIST ThermoML archive (doi:10.1016/j.fluid.2011.12.029)

Conditions: 308.15 K; 40000 kPa; Liquid; Vibrating tube method
Entries and their mass density
Recorded Metric: mass density (kg/m3)

- Molecule: "CCC[n+]1ccccc1Oc1ccc(Cl)c[n+]1CCOS(=O)(=O)[O-].F[B-](F)(F)F"
  Result Unit: "kg/m3"
  Readout Value: 1262.88
- Molecule: "CCCC[n+]1cccc(C)c1.N#C[N-]C#N [1-butyl-3-methylpyridinium dicyanamide]"
  Result Unit: "kg/m3"
  Readout Value: 1058.23
- Molecule: "CCCC[n+]1ccccc1.O=S(=O)([O-])C(F)(F)F [1-butylpyridinium trifluoromethanesulfonate]"
  Result Unit: "kg/m3"
  Readout Value: 1329.48
- Molecule: "CCCC[n+]1ccccc1.F[B-](F)(F)F [1-butylpyridinium tetrafluoroborate]"
  Result Unit: "kg/m3"
  Readout Value: 1224.5
- Molecule: "CCCCCCCC[n+]1cccc(C)c1.F[B-](F)(F)F [N-octyl-3-methylpyridinium tetrafluoroborate]"
  Result Unit: "kg/m3"
  Readout Value: 1108.37

----------
Settings: 333.15 K; 65000 kPa; Liquid; Vibrating tube method
Recorded Metric: mass density (kg/m3)

- Compound: "CCCCCCCC[n+]1cccc(C)c1.F[B-](F)(F)F [N-octyl-3-methylpyridinium tetrafluoroborate]"
  Readout Value: 1104.05
- Compound: "CCCC[n+]1cccc(C)c1.N#C[N-]C#N [1-butyl-3-methylpyridinium dicyanamide]"
  Readout Value: 1052.61
- Compound: "CCC[n+]1ccccc1Oc1ccc(Cl)c[n+]1CCOS(=O)(=O)[O-].F[B-](F)(F)F"
  Readout Value: 1255.7
- Compound: "CCCC[n+]1ccccc1.F[B-](F)(F)F [1-butylpyridinium tetrafluoroborate]"
  Readout Value: 1218.57
- Compound: "CCCC[n+]1ccccc1.O=S(=O)([O-])C(F)(F)F [1-butylpyridinium trifluoromethanesulfonate]"
  Readout Value: 1323.38

----------
Settings: 328.15 K; 65000 kPa; Liquid; Vibrating tube method
Reported mass density values for the following compounds.
Recorded Metric: mass density (kg/m3)

- Compound: "CCCC[n+]1cccc(C)c1.N#C[N-]C#N [1-butyl-3-methylpyridinium dicyanamide]"
  Readout Value: 1055.47
- Compound: "CCC[n+]1ccccc1Oc1ccc(Cl)c[n+]1CCOS(=O)(=O)[O-].F[B-](F)(F)F"
  Readout Value: 1258.79
- Compound: "CCCCCCCC[n+]1cccc(C)c1.F[B-](F)(F)F [N-octyl-3-methylpyridinium tetrafluoroborate]"
  Readout Value: 1106.82
- Compound: "CCCC[n+]1ccccc1.O=S(=O)([O-])C(F)(F)F [1-butylpyridinium trifluoromethanesulfonate]"
  Readout Value: 1326.69
- Compound: "CCCC[n+]1ccccc1.F[B-](F)(F)F [1-butylpyridinium tetrafluoroborate]"
  Readout Value: 1221.56

----------
Measured mass density by item
Conditions: 313.15 K; 10000 kPa; Liquid; Vibrating tube method
Recorded Metric: mass density (kg/m3)

- Compound: "CCCC[n+]1ccccc1.O=S(=O)([O-])C(F)(F)F [1-butylpyridinium trifluoromethanesulfonate]"
  Recorded Metric: "mass density"
  Readout Value: 1309.74
- Compound: "CCCC[n+]1cccc(C)c1.N#C[N-]C#N [1-butyl-3-methylpyridinium dicyanamide]"
  Recorded Metric: "mass density"
  Readout Value: 1044.29
- Compound: "CCCCCCCC[n+]1cccc(C)c1.F[B-](F)(F)F [N-octyl-3-methylpyridinium tetrafluoroborate]"
  Recorded Metric: "mass density"
  Readout Value: 1091.09
- Compound: "CCC[n+]1ccccc1Oc1ccc(Cl)c[n+]1CCOS(=O)(=O)[O-].F[B-](F)(F)F"
  Recorded Metric: "mass density"
  Readout Value: 1247.02
- Compound: "CCCC[n+]1ccccc1.F[B-](F)(F)F [1-butylpyridinium tetrafluoroborate]"
  Recorded Metric: "mass density"
  Readout Value: 1208.56

----------
Conditions: 323.15 K; 50000 kPa; Liquid; Vibrating tube method
± gives the expanded uncertainty stated by the source.

- Molecule: "CCCC[n+]1cccc(C)c1.N#C[N-]C#N [1-butyl-3-methylpyridinium dicyanamide]"
  mass density: "1053.22 ± 1.1 kg/m3"
- Molecule: "CCCC[n+]1ccccc1.F[B-](F)(F)F [1-butylpyridinium tetrafluoroborate]"
  mass density: "1218.98 ± 0.84 kg/m3"
- Molecule: "CCCCCCCC[n+]1cccc(C)c1.F[B-](F)(F)F [N-octyl-3-methylpyridinium tetrafluoroborate]"
  mass density: "1103.63 ± 1.3 kg/m3"
- Molecule: "CCC[n+]1ccccc1Oc1ccc(Cl)c[n+]1CCOS(=O)(=O)[O-].F[B-](F)(F)F"
  mass density: "1256.63 ± 0.94 kg/m3"
- Molecule: "CCCC[n+]1ccccc1.O=S(=O)([O-])C(F)(F)F [1-butylpyridinium trifluoromethanesulfonate]"
  mass density: "1323.34 ± 1.1 kg/m3"

----------
Conditions: 283.15 K; 10000 kPa; Liquid; Vibrating tube method
Numbers after ± are expanded uncertainties.
Recorded Metric: mass density

- Compound: "CCCC[n+]1ccccc1.F[B-](F)(F)F [1-butylpyridinium tetrafluoroborate]"
  Recorded Metric: "mass density"
  Readout Value: "1229.65 ± 0.51 kg/m3"
- Compound: "CCCCCCCC[n+]1cccc(C)c1.F[B-](F)(F)F [N-octyl-3-methylpyridinium tetrafluoroborate]"
  Recorded Metric: "mass density"
  Readout Value: "1110.95 ± 1.1 kg/m3"
- Compound: "CCCC[n+]1cccc(C)c1.N#C[N-]C#N [1-butyl-3-methylpyridinium dicyanamide]"
  Recorded Metric: "mass density"
  Readout Value: "1062.55 ± 0.99 kg/m3"
- Compound: "CCC[n+]1ccccc1Oc1ccc(Cl)c[n+]1CCOS(=O)(=O)[O-].F[B-](F)(F)F"
  Recorded Metric: "mass density"
  Readout Value: "1269.01 ± 0.56 kg/m3"

----------
Settings: 303.15 K; 55000 kPa; Liquid; Vibrating tube method
Each record here notes measured mass density.

- Compound: "CCC[n+]1ccccc1Oc1ccc(Cl)c[n+]1CCOS(=O)(=O)[O-].F[B-](F)(F)F"
  Result Unit: "kg/m3"
  mass density: 1271.81
- Compound: "CCCC[n+]1cccc(C)c1.N#C[N-]C#N [1-butyl-3-methylpyridinium dicyanamide]"
  Result Unit: "kg/m3"
  mass density: 1066.19
- Compound: "CCCCCCCC[n+]1cccc(C)c1.F[B-](F)(F)F [N-octyl-3-methylpyridinium tetrafluoroborate]"
  Result Unit: "kg/m3"
  mass density: 1117.71
- Compound: "CCCC[n+]1ccccc1.O=S(=O)([O-])C(F)(F)F [1-butylpyridinium trifluoromethanesulfonate]"
  Result Unit: "kg/m3"
  mass density: 1339.98
- Compound: "CCCC[n+]1ccccc1.F[B-](F)(F)F [1-butylpyridinium tetrafluoroborate]"
  Result Unit: "kg/m3"
  mass density: 1233.82

----------
Conditions: 288.15 K; 25000 kPa; Liquid; Vibrating tube method
Listing of entries alongside the reported mass density.

- Molecule: "CCC[n+]1ccccc1Oc1ccc(Cl)c[n+]1CCOS(=O)(=O)[O-].F[B-](F)(F)F"
  mass density (kg/m3): 1271.11
- Molecule: "CCCC[n+]1ccccc1.F[B-](F)(F)F [1-butylpyridinium tetrafluoroborate]"
  mass density (kg/m3): 1232.3
- Molecule: "CCCC[n+]1cccc(C)c1.N#C[N-]C#N [1-butyl-3-methylpyridinium dicyanamide]"
  mass density (kg/m3): 1064.88
- Molecule: "CCCCCCCC[n+]1cccc(C)c1.F[B-](F)(F)F [N-octyl-3-methylpyridinium tetrafluoroborate]"
  mass density (kg/m3): 1114.52

----------
Conditions: 308.15 K; 20000 kPa; Liquid; Vibrating tube method
Recorded Metric: mass density (kg/m3)

- Molecule: "CCCC[n+]1ccccc1.O=S(=O)([O-])C(F)(F)F [1-butylpyridinium trifluoromethanesulfonate]"
  Readout Value: 1319.24
- Molecule: "CCCC[n+]1ccccc1.F[B-](F)(F)F [1-butylpyridinium tetrafluoroborate]"
  Readout Value: 1216.23
- Molecule: "CCCCCCCC[n+]1cccc(C)c1.F[B-](F)(F)F [N-octyl-3-methylpyridinium tetrafluoroborate]"
  Readout Value: 1099.29
- Molecule: "CCC[n+]1ccccc1Oc1ccc(Cl)c[n+]1CCOS(=O)(=O)[O-].F[B-](F)(F)F"
  Readout Value: 1254.8
- Molecule: "CCCC[n+]1cccc(C)c1.N#C[N-]C#N [1-butyl-3-methylpyridinium dicyanamide]"
  Readout Value: 1051.02

----------
Conditions: 293.15 K; 45000 kPa; Liquid; Vibrating tube method
Recorded Metric: mass density (kg/m3)

- Compound: "CCCC[n+]1ccccc1.F[B-](F)(F)F [1-butylpyridinium tetrafluoroborate]"
  Readout Value: 1236.53
- Compound: "CCCCCCCC[n+]1cccc(C)c1.F[B-](F)(F)F [N-octyl-3-methylpyridinium tetrafluoroborate]"
  Readout Value: 1119.87
- Compound: "CCCC[n+]1cccc(C)c1.N#C[N-]C#N [1-butyl-3-methylpyridinium dicyanamide]"
  Readout Value: 1068.69
- Compound: "CCC[n+]1ccccc1Oc1ccc(Cl)c[n+]1CCOS(=O)(=O)[O-].F[B-](F)(F)F"
  Readout Value: 1275.01
